# assay: Pharmacokinetic study of 157 (and metabolite endothal) in SD rats, iv and po; plasma, liver, brain
# Format: in vivo
# condition notes: female, Sprague-Dawley (SD), rat, in vivo, iv, 1.5 mg/kg, iv 1.5 mg/kg, 1 hr, Mean; read-out: 157 plasma concentration
readout label: concentration at 1 h (ng/mL)
Entry rule: numbers only, all in ng/mL.

What value of concentration at 1 h has been reported for the following compound? CCCCCCCOC(=O)C1C2CCC(O2)C1C(=O)N1CCN(C)CC1 (stereo not shown)
3.12

---

# assay: Pharmacokinetic study of 153 (and metabolite endothal) in SD rats, iv and po; plasma, liver, brain
# Type: in vivo
# condition notes: female, SD, rat, in vivo, iv, 1.25 mg/kg, iv 1.25 mg/kg, 0.25 hr, Rat 2; read-out: 153 brain concentration
readout label: concentration at 0.25 h (ng/g)
Entry rule: numbers only, all in ng/g.

What value of concentration at 0.25 h has been reported for the following molecule? CCCOC(=O)C1C2CCC(O2)C1C(=O)N1CCN(C)CC1 (stereo not shown)
40.3

---

# assay: Pharmacokinetic study of 157 (and metabolite endothal) in SD rats, iv and po; plasma, liver, brain
# Type: in vivo
# condition notes: female, SD, rat, in vivo; 157 po vs iv 1.5 mg/kg; read-out: BA (bioavailability) of 157
readout label: bioavailability (%)
Entry rule: numbers only, all in %.

What value of bioavailability has been reported for the following compound? CCCCCCCOC(=O)C1C2CCC(O2)C1C(=O)N1CCN(C)CC1 (stereo not shown)
6.98

---

# assay: Pharmacokinetic study of 153 (and metabolite endothal) in SD rats, iv and po; plasma, liver, brain
# Format: in vivo
# condition notes: female, SD, rat, in vivo, po, 1.25 mg/kg, 153 in plasma, PO 1.25 mg/kg, rat 1
readout label: AUC(0-inf)

What value of AUC(0-inf) has been reported for the following molecule? CCCOC(=O)C1C2CCC(O2)C1C(=O)N1CCN(C)CC1 (stereo not shown) [Compound 153]
163 ng·h/mL

---

# assay: in vivo
# condition notes: female, SD, rat, in vivo, iv, 1 mg/kg, MRT of 100
readout label: MRT (h)
Entry rule: numbers only, all in h.

What value of MRT has been reported for the following molecule? CN1CCN(C(=O)C2C3CCC(O3)C2C(=O)O)CC1 (stereo not shown)
2.68

---

# assay: in vivo
# condition notes: female, Sprague-Dawley, rat, in vivo, iv, 1.5 mg/kg, 100 plasma concentration
readout label: concentration at 0.25 h
Answer with the figure and its unit, nothing else.

What value of concentration at 0.25 h has been reported for the following molecule? CN1CCN(C(=O)C2C3CCC(O3)C2C(=O)O)CC1 (stereo not shown) [Compound 100]
3780 ng/mL

---

# assay: Pharmacokinetic study of 157 (and metabolite endothal) in SD rats, iv and po; plasma, liver, brain
# Format: in vivo
# condition notes: female, Sprague-Dawley (SD), rat, in vivo, iv, 1.5 mg/kg, iv 1.5 mg/kg, 2 hr, Rat 2; read-out: 157 plasma concentration
# Method: The blood, liver and brain tissue samples were collected at predetermined times from rats. […] Compound were diluted shortly before use in 4% sodium bicarbonate for sterile injection (this is the standard pediatric solution of NaHCO3 with a pH of about 8.5). Compound 153 was freshly prepared by diluting the drugs shortly before use in 4% sodium bicarbonate for sterile injection (this is the standard pediatric solution of NaHCO3 with a pH of about 8.5). […]
readout label: concentration at 2 h (ng/mL)
Entry rule: numbers only, all in ng/mL.

What value of concentration at 2 h has been reported for the following compound? CCCCCCCOC(=O)C1C2CCC(O2)C1C(=O)N1CCN(C)CC1 (stereo not shown)
0.556

---

# assay: Pharmacokinetic study of 153 (and metabolite endothal) in SD rats, iv and po; plasma, liver, brain
# Assay type: in vivo
# condition notes: female, SD, rat, in vivo; 153 po vs iv 1.25 mg/kg; read-out: BA (bioavailability) of 153
readout label: bioavailability (%)
Entry rule: numbers only, all in %.

What value of bioavailability has been reported for the following compound? CCCOC(=O)C1C2CCC(O2)C1C(=O)N1CCN(C)CC1 (stereo not shown)
55.4

---

# assay: in vivo
# Parameters: species or system SD rats
# condition notes: male, SD, rat, iv, 1.4 mg/kg, liver concentration of 113
readout label: concentration at 0.25 h (ng/g)
Entry rule: numbers only, all in ng/g.

What value of concentration at 0.25 h has been reported for the following molecule? CN1CCN(C(=O)C2C(C(=O)OCC(Cl)(Cl)Cl)[C@H]3CC[C@@H]2O3)CC1 (stereo partly shown) [Compound 113]
55.5

---

# assay: Pharmacokinetic study of 153 (and metabolite endothal) in SD rats, iv and po; plasma, liver, brain
# Type: in vivo
# condition notes: female, Sprague-Dawley, rat, in vivo, po, 1.25 mg/kg, PO per title, 1.25 mg/kg, 2 hr, Mean; read-out: 153 liver concentration
readout label: concentration at 2 h (ng/g)
Entry rule: numbers only, all in ng/g.

What value of concentration at 2 h has been reported for the following molecule? CCCOC(=O)C1C2CCC(O2)C1C(=O)N1CCN(C)CC1 (stereo not shown) [Compound 153]
41.6

---

# assay: in vivo
# condition notes: male, Sprague-Dawley, rat, in vivo, po, 10 mg/kg, Cmax of 100
readout label: Cmax
Answer with the figure and its unit, nothing else.

What value of Cmax has been reported for the following molecule? CN1CCN(C(=O)C2C3CCC(O3)C2C(=O)O)CC1 (stereo not shown) [Compound 100]
1430 ng/mL

---

# assay: Pharmacokinetic study of 157 (and metabolite endothal) in SD rats, iv and po; plasma, liver, brain
# Type: in vivo
# condition notes: female, Sprague-Dawley (SD), rat, in vivo, iv, 1.5 mg/kg, 157 in Brain, iv 1.5 mg/kg, rat 2; read-out: MRT (0-t)
# Procedure: The blood, liver and brain tissue samples were collected at predetermined times from rats. […] Compound were diluted shortly before use in 4% sodium bicarbonate for sterile injection (this is the standard pediatric solution of NaHCO3 with a pH of about 8.5). Compound 153 was freshly prepared by diluting the drugs shortly before use in 4% sodium bicarbonate for sterile injection (this is the standard pediatric solution of NaHCO3 with a pH of about 8.5). […]
readout label: MRT last (min)
Entry rule: numbers only, all in min.

What value of MRT last has been reported for the following compound? CCCCCCCOC(=O)C1C2CCC(O2)C1C(=O)N1CCN(C)CC1 (stereo not shown) [Compound 157]
19.4

---

# assay: Pharmacokinetic study of 157 (and metabolite endothal) in SD rats, iv and po; plasma, liver, brain
# Type: in vivo
# condition notes: female, Sprague-Dawley (SD), rat, in vivo, po, 1.5 mg/kg, 157 in plasma, PO 1.5 mg/kg, rat 2
# Experimental: The blood, liver and brain tissue samples were collected at predetermined times from rats. […] Compound were diluted shortly before use in 4% sodium bicarbonate for sterile injection (this is the standard pediatric solution of NaHCO3 with a pH of about 8.5). Compound 153 was freshly prepared by diluting the drugs shortly before use in 4% sodium bicarbonate for sterile injection (this is the standard pediatric solution of NaHCO3 with a pH of about 8.5). […]
readout label: AUC(0-inf) (ng·h/mL)
Entry rule: numbers only, all in ng·h/mL.

What value of AUC(0-inf) has been reported for the following molecule? CCCCCCCOC(=O)C1C2CCC(O2)C1C(=O)N1CCN(C)CC1 (stereo not shown)
3

---

# assay: Pharmacokinetic study of 157 (and metabolite endothal) in SD rats, iv and po; plasma, liver, brain
# Format: in vivo
# condition notes: female, SD (Sprague-Dawley), rat, in vivo, iv, 1.5 mg/kg, 157 in plasma, IV 1.5 mg/kg, Mean
readout label: AUC(0-inf) (ng·h/mL)
Entry rule: numbers only, all in ng·h/mL.

What value of AUC(0-inf) has been reported for the following compound? CCCCCCCOC(=O)C1C2CCC(O2)C1C(=O)N1CCN(C)CC1 (stereo not shown)
47.2

---

# assay: Pharmacokinetic study of 157 (and metabolite endothal) in SD rats, iv and po; plasma, liver, brain
# Format: in vivo
# condition notes: female, SD (Sprague-Dawley), rat, in vivo, iv, 1.5 mg/kg, 157 in plasma, IV 1.5 mg/kg, rat 2; read-out: Cmax
readout label: Cmax (ng/mL)
Entry rule: numbers only, all in ng/mL.

What value of Cmax has been reported for the following molecule? CCCCCCCOC(=O)C1C2CCC(O2)C1C(=O)N1CCN(C)CC1 (stereo not shown)
114

---

# assay: in vivo
# condition notes: male, Sprague-Dawley, rat, in vivo, po, 10 mg/kg, AUC0-t of 100
readout label: AUC(0-t) (ng·h/mL)
Entry rule: numbers only, all in ng·h/mL.

What value of AUC(0-t) has been reported for the following molecule? CN1CCN(C(=O)C2C3CCC(O3)C2C(=O)O)CC1 (stereo not shown) [Compound 100]
2800
